target: Hexokinase-4 (Homo sapiens) + Glucokinase regulatory protein (Homo sapiens) (UniProt P35557+Q14397); assay: qHTS assay for inhibitors of recombinant human GCK-GKRP interaction: ADP-Glo assay (AID 743206); settings: ADP-Glo luminescence, 60 min; series mostly up to 76.9 µM
Sequence (P35557 whole entry, looked up): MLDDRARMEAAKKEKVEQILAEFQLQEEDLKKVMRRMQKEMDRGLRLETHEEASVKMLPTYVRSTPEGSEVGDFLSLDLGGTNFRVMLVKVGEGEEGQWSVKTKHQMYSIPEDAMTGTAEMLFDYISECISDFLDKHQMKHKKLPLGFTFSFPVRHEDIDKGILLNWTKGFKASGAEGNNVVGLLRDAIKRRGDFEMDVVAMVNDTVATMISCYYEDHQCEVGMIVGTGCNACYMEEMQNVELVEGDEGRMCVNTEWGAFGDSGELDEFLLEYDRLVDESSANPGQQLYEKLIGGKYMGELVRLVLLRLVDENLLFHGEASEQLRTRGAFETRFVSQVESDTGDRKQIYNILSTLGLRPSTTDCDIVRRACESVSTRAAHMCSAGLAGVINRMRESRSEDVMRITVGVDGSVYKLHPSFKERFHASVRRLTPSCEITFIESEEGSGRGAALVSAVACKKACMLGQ
Sequence (Q14397 whole entry, looked up): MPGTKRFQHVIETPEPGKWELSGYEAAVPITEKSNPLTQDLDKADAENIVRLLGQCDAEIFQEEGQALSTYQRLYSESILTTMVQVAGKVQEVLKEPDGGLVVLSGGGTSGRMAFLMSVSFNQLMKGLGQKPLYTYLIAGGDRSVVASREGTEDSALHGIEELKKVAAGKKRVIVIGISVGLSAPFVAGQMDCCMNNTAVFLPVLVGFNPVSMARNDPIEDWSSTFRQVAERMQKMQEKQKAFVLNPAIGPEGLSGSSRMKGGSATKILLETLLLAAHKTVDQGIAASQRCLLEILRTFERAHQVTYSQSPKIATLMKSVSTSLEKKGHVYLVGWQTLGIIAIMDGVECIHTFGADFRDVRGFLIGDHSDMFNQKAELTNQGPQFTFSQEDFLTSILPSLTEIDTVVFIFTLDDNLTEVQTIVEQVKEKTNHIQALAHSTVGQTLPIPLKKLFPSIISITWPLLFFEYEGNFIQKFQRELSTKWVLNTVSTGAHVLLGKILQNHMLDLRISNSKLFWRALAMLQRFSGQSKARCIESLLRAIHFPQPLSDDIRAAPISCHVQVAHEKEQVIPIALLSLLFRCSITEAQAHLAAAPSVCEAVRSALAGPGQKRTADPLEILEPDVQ
Activity calls are given as the source filed them. Calls come from the whole dose curve; as a rule, active = well fitted curve in the direction sought with a large enough effect; inconclusive = small, poorly fitted or top-dose-only effect, or another doubt; inactive = no such curve, though single readings can be large or run the other way.
Measurement kind: outcome

Examples with their reported outcome follow.
O=C1NC(=O)/C(=C/c2ccc3nccnc3c2)S1 : inactive
CCCCCCCCCCCCCCCC(=O)NCC(COP(=O)([O-])OCC[N+](C)(C)C)OCC (stereo not given) : inactive
CC(C)Cc1ccc([C@H](C)C(=O)O)cc1 : inactive
CSc1ccccc1N1CCN(CCCCCC(=O)NC2CCCc3ccccc32)CC1 (stereo not given) : inactive
CC1OC1P(=O)(O)O (stereo not given) : inactive
COC1=C(OC)C(=O)c2ccccc2C1=O : inactive
Cn1ncc(S(=O)(=O)Cc2ccccc2)c(Br)c1=O : inactive
NC(=O)C1=CN(C2OC(COP(=O)(O)OP(=O)(O)OC[C@H]3O[C@@H](n4cnc5c(N)ncnc54)[C@H](OP(=O)(O)O)[C@@H]3O)C(O)C2O)C=CC1 (stereo not given in full) : inactive
N.N.O=C(O)C1(C(=O)O)CCC1.[Pt] : inactive

Attention now shifts to the item below.
Asked: Would you mind telling me what outcome value was observed for "CCNC(=O)[C@H]1O[C@@H](n2cnc3c(N)nc(NCCc4ccc(CCC(=O)O)cc4)nc32)[C@H](O)[C@@H]1O" ?
Given back: inactive

All values here come from PubChem BioAssay (NCATS).
